Hello, the source for this data is the kinase profiling compilation of Christmann-Franck et al. (2016), in case you need it.

assay_target: MAP3K3 (human) (UniProt Q99759)
Sequence (Q99759 whole entry, looked up): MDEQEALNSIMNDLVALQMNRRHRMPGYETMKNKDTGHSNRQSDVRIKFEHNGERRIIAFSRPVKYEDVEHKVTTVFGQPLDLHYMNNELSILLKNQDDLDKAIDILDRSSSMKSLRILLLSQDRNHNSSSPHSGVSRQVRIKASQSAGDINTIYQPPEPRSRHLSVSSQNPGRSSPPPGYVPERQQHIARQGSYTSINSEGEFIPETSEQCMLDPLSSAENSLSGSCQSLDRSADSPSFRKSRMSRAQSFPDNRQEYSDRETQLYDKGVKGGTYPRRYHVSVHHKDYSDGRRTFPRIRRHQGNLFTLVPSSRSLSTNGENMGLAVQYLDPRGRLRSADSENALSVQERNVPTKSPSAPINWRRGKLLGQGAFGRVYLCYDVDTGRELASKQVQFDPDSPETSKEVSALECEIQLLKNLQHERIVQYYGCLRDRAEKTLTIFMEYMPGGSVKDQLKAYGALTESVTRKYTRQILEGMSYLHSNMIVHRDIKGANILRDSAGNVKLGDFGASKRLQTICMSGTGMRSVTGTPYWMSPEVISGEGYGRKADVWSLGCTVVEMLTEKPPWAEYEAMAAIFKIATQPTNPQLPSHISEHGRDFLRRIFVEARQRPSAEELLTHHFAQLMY
experiment_summary: KINOMEscan competition binding
condition_summary: compound 10.0 µM
value_type: kinase still bound, per cent of control

Here is how some molecules turned out for kinase still bound, per cent of control.
compound_structure_string: O=C1Nc2cc(Br)ccc2/C1=C1/Nc2ccccc2/C1=N\O
kinase still bound, per cent of control: 38%

compound_structure_string: Cc1cnc(-c2cnc(NCCNc3ccc(C#N)cn3)nc2-c2ccc(Cl)cc2Cl)[nH]1
kinase still bound, per cent of control: 100%

compound_structure_string: COc1ccc(CNC(=O)Nc2ncc([N+](=O)[O-])s2)cc1
kinase still bound, per cent of control: 97%

Note: attention shifts to another entry.
Cn1cc(C2=C(c3ccc(Cl)cc3Cl)C(=O)NC2=O)c2ccccc21 yielded kinase still bound, per cent of control of 88%

====

# key: entry, value: kinase still bound, per cent of control
assay_target: UniProt Q12851
Sequence (Q12851 whole entry, looked up): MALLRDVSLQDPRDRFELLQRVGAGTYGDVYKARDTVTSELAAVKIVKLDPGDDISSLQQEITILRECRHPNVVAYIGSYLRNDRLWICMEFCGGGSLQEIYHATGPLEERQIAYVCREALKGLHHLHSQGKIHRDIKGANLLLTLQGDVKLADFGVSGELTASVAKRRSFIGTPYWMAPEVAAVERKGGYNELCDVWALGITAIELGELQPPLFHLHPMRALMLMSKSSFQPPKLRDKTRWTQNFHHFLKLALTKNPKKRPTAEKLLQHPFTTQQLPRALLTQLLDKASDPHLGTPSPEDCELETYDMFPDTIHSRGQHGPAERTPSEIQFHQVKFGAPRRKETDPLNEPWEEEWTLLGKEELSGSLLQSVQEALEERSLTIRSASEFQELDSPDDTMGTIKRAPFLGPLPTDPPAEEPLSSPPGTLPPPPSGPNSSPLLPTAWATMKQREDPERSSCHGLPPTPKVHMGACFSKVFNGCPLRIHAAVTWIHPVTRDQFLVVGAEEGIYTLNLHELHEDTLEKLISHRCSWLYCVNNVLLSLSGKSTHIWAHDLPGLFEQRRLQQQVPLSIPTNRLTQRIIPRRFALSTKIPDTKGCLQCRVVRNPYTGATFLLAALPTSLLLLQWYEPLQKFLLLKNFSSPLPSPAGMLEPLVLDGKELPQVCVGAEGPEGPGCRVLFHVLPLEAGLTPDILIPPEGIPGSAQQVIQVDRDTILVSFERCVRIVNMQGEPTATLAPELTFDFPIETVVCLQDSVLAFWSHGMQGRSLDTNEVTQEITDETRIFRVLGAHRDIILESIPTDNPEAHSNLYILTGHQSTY
experiment_summary: KINOMEscan competition binding
condition_summary: compound 10.0 µM
Unit % implied. Number only.

Here is how some compounds turned out for kinase still bound, per cent of control.
compound_structure_string: Cn1cc(C2=C(c3ccc(Cl)cc3Cl)C(=O)NC2=O)c2ccccc21
value_type: kinase still bound, per cent of control
quantity_unit: %
numeric_result: 100
--
compound_structure_string: Cc1cnc(-c2cnc(NCCNc3ccc(C#N)cn3)nc2-c2ccc(Cl)cc2Cl)[nH]1
value_type: kinase still bound, per cent of control
quantity_unit: %
numeric_result: 82
--
compound_structure_string: O=C1Nc2cc(Br)ccc2/C1=C1/Nc2ccccc2/C1=N\O
value_type: kinase still bound, per cent of control
quantity_unit: %
numeric_result: 8.5

Note: attention shifts to another entry.
COc1ccc(CNC(=O)Nc2ncc([N+](=O)[O-])s2)cc1 yielded kinase still bound, per cent of control of 100

====

# key: entry, value: kinase still bound, per cent of control
assay_target: RPS6KA1 KD1 (human) (UniProt Q15418)
Sequence (Q15418 whole entry, looked up): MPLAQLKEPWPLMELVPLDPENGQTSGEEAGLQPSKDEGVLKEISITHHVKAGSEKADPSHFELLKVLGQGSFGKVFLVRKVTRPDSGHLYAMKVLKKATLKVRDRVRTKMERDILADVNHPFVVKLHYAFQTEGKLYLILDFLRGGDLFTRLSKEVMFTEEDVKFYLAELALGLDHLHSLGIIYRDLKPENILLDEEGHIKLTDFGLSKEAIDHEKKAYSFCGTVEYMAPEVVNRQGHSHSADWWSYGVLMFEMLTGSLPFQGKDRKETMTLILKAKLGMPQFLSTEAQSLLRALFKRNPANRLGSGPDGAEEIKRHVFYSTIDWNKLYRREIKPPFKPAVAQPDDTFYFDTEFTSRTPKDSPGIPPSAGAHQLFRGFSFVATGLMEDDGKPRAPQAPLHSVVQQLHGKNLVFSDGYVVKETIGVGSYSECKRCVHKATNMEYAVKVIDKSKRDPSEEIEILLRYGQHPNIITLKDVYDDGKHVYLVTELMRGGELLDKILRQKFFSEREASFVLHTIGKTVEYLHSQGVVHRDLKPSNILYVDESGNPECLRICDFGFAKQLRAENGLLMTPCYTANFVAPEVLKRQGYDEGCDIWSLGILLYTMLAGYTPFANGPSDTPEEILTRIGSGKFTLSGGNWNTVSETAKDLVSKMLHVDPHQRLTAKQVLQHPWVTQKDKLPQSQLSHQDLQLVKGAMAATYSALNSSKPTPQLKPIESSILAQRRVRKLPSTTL
experiment_summary: KINOMEscan competition binding
condition_summary: compound 10.0 µM
Unit % implied. Number only.

compound_structure_string: COc1ccc(CNC(=O)Nc2ncc([N+](=O)[O-])s2)cc1
quantity_unit: %
kinase still bound, per cent of control: 100
--
compound_structure_string: Cc1cnc(-c2cnc(NCCNc3ccc(C#N)cn3)nc2-c2ccc(Cl)cc2Cl)[nH]1
quantity_unit: %
kinase still bound, per cent of control: 100
--
compound_structure_string: O=C1Nc2cc(Br)ccc2/C1=C1/Nc2ccccc2/C1=N\O
quantity_unit: %
kinase still bound, per cent of control: 3.1

Note: attention shifts to another entry.
For the molecule Cn1cc(C2=C(c3ccc(Cl)cc3Cl)C(=O)NC2=O)c2ccccc21 , the measured kinase still bound, per cent of control on RPS6KA1 KD1 (human) (UniProt Q15418) was 58

====

assay_target: UniProt:P00519
Sequence (P00519 whole entry, looked up): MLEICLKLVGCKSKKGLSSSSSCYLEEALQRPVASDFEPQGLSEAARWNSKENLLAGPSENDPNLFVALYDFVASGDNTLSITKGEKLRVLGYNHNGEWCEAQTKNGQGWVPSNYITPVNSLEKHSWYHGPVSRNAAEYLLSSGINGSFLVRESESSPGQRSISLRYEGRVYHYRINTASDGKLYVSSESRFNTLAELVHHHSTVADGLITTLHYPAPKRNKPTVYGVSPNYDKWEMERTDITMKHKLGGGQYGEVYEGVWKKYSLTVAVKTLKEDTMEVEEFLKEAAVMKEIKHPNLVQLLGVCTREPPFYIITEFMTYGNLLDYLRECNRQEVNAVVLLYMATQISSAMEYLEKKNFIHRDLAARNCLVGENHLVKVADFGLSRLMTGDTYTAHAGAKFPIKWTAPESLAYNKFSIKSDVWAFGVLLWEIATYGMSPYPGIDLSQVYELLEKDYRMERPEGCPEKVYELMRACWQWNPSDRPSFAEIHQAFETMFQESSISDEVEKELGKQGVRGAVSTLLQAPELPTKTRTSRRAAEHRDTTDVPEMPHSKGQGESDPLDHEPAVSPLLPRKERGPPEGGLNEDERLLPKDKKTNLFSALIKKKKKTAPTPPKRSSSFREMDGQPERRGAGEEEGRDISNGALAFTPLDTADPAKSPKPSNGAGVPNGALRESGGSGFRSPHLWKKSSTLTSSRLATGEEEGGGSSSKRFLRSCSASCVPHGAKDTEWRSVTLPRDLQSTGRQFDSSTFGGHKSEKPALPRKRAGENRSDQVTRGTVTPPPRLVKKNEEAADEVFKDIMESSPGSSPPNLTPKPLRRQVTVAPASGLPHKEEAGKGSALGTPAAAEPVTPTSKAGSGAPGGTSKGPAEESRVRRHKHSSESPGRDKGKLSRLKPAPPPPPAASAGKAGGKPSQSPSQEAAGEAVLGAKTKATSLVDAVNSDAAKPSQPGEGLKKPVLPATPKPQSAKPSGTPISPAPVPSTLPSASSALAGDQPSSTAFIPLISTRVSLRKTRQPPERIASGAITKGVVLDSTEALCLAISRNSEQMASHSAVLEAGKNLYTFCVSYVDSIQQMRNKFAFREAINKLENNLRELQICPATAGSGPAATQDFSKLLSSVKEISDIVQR
experiment_summary: KINOMEscan competition binding
condition_summary: compound 10.0 µM
# key: entry, value: kinase still bound, per cent of control
Unit % implied. Number only.

Here is how some compounds turned out for kinase still bound, per cent of control.
compound_structure_string: O=C1Nc2cc(Br)ccc2/C1=C1/Nc2ccccc2/C1=N\O
quantity_unit: %
numeric_result: 2.3

compound_structure_string: COc1ccc(CNC(=O)Nc2ncc([N+](=O)[O-])s2)cc1
quantity_unit: %
numeric_result: 100

compound_structure_string: Cc1cnc(-c2cnc(NCCNc3ccc(C#N)cn3)nc2-c2ccc(Cl)cc2Cl)[nH]1
quantity_unit: %
numeric_result: 96

Note: attention shifts to another entry.
Cn1cc(C2=C(c3ccc(Cl)cc3Cl)C(=O)NC2=O)c2ccccc21 yielded kinase still bound, per cent of control of 100

====

assay_target: NEK9 (human)
experiment_summary: KINOMEscan competition binding
condition_summary: compound 10.0 µM
value_type: kinase still bound, per cent of control (%)
Unit % implied. Number only.

Here is how some compounds turned out for kinase still bound, per cent of control.
compound_structure_string: O=C1Nc2cc(Br)ccc2/C1=C1/Nc2ccccc2/C1=N\O
assay_target: NEK9 (human)
quantity_unit: %
numeric_result: 98

compound_structure_string: Cc1cnc(-c2cnc(NCCNc3ccc(C#N)cn3)nc2-c2ccc(Cl)cc2Cl)[nH]1
assay_target: NEK9 (human)
quantity_unit: %
numeric_result: 100

compound_structure_string: Cn1cc(C2=C(c3ccc(Cl)cc3Cl)C(=O)NC2=O)c2ccccc21
assay_target: NEK9 (human)
quantity_unit: %
numeric_result: 100

Note: attention shifts to another entry.
For the compound COc1ccc(CNC(=O)Nc2ncc([N+](=O)[O-])s2)cc1 , the measured kinase still bound, per cent of control on NEK9 (human) was 100

====

assay_target: AURKA (human) (UniProt O14965)
Sequence (O14965 whole entry, looked up): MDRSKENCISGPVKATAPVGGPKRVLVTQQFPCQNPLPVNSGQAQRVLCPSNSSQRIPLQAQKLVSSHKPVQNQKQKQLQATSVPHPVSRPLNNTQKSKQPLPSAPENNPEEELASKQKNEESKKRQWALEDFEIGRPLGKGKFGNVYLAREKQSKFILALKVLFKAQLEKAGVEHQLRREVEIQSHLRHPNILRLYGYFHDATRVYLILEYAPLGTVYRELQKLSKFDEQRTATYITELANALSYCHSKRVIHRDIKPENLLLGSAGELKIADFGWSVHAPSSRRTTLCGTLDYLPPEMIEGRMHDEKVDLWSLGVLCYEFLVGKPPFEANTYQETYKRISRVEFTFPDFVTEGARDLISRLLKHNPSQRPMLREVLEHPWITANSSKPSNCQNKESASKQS
experiment_summary: KINOMEscan competition binding
condition_summary: compound 10.0 µM
value_type: kinase still bound, per cent of control (%)
Unit % implied. Number only.

Here is how some compounds turned out for kinase still bound, per cent of control.
compound_structure_string: O=C1Nc2cc(Br)ccc2/C1=C1/Nc2ccccc2/C1=N\O
kinase still bound, per cent of control (%): 20

compound_structure_string: COc1ccc(CNC(=O)Nc2ncc([N+](=O)[O-])s2)cc1
kinase still bound, per cent of control (%): 84

compound_structure_string: Cn1cc(C2=C(c3ccc(Cl)cc3Cl)C(=O)NC2=O)c2ccccc21
kinase still bound, per cent of control (%): 100

Cc1cnc(-c2cnc(NCCNc3ccc(C#N)cn3)nc2-c2ccc(Cl)cc2Cl)[nH]1 yielded kinase still bound, per cent of control of 100

====

assay_target: EIF2AK2 (human)
experiment_summary: KINOMEscan competition binding
condition_summary: compound 10.0 µM
value_type: kinase still bound, per cent of control
Answer format: value, then unit.

compound_structure_string: Cn1cc(C2=C(c3ccc(Cl)cc3Cl)C(=O)NC2=O)c2ccccc21
kinase still bound, per cent of control: 81%
//
compound_structure_string: COc1ccc(CNC(=O)Nc2ncc([N+](=O)[O-])s2)cc1
kinase still bound, per cent of control: 76%
//
compound_structure_string: Cc1cnc(-c2cnc(NCCNc3ccc(C#N)cn3)nc2-c2ccc(Cl)cc2Cl)[nH]1
kinase still bound, per cent of control: 50%

Note: attention shifts to another entry.
O=C1Nc2cc(Br)ccc2/C1=C1/Nc2ccccc2/C1=N\O yielded kinase still bound, per cent of control of 33%

====

# key: entry, value: kinase still bound, per cent of control
assay_target: MST4 (human)
experiment_summary: KINOMEscan competition binding
condition_summary: compound 10.0 µM
Unit % implied. Number only.

Here is how some molecules turned out for kinase still bound, per cent of control.
compound_structure_string: O=C1Nc2cc(Br)ccc2/C1=C1/Nc2ccccc2/C1=N\O
quantity_unit: %
kinase still bound, per cent of control: 35
//
compound_structure_string: Cc1cnc(-c2cnc(NCCNc3ccc(C#N)cn3)nc2-c2ccc(Cl)cc2Cl)[nH]1
quantity_unit: %
kinase still bound, per cent of control: 82
//
compound_structure_string: COc1ccc(CNC(=O)Nc2ncc([N+](=O)[O-])s2)cc1
quantity_unit: %
kinase still bound, per cent of control: 99

Note: attention shifts to another entry.
Cn1cc(C2=C(c3ccc(Cl)cc3Cl)C(=O)NC2=O)c2ccccc21 yielded kinase still bound, per cent of control of 100

====

assay_target: MATK (human)
experiment_summary: KINOMEscan competition binding
condition_summary: compound 10.0 µM
value_type: kinase still bound, per cent of control (%)
Unit % implied. Number only.

Here is how some compounds turned out for kinase still bound, per cent of control.
compound_structure_string: O=C1Nc2cc(Br)ccc2/C1=C1/Nc2ccccc2/C1=N\O
kinase still bound, per cent of control (%): 30

compound_structure_string: Cc1cnc(-c2cnc(NCCNc3ccc(C#N)cn3)nc2-c2ccc(Cl)cc2Cl)[nH]1
kinase still bound, per cent of control (%): 79

COc1ccc(CNC(=O)Nc2ncc([N+](=O)[O-])s2)cc1 yielded kinase still bound, per cent of control of 95

Cn1cc(C2=C(c3ccc(Cl)cc3Cl)C(=O)NC2=O)c2ccccc21 yielded kinase still bound, per cent of control of 75

====

assay_target: CIT (human) (UniProt O14578)
experiment_summary: KINOMEscan competition binding
condition_summary: compound 10.0 µM
value_type: kinase still bound, per cent of control (%)
Unit % implied. Number only.

Here is how some molecules turned out for kinase still bound, per cent of control.
compound_structure_string: Cc1cnc(-c2cnc(NCCNc3ccc(C#N)cn3)nc2-c2ccc(Cl)cc2Cl)[nH]1
assay_target: CIT (human) (UniProt O14578)
quantity_unit: %
kinase still bound, per cent of control: 100
--
compound_structure_string: Cn1cc(C2=C(c3ccc(Cl)cc3Cl)C(=O)NC2=O)c2ccccc21
assay_target: CIT (human) (UniProt O14578)
quantity_unit: %
kinase still bound, per cent of control: 85

O=C1Nc2cc(Br)ccc2/C1=C1/Nc2ccccc2/C1=N\O yielded kinase still bound, per cent of control of 29

COc1ccc(CNC(=O)Nc2ncc([N+](=O)[O-])s2)cc1 yielded kinase still bound, per cent of control of 89

====

assay_target: UniProt O75460
Sequence (O75460 whole entry, looked up): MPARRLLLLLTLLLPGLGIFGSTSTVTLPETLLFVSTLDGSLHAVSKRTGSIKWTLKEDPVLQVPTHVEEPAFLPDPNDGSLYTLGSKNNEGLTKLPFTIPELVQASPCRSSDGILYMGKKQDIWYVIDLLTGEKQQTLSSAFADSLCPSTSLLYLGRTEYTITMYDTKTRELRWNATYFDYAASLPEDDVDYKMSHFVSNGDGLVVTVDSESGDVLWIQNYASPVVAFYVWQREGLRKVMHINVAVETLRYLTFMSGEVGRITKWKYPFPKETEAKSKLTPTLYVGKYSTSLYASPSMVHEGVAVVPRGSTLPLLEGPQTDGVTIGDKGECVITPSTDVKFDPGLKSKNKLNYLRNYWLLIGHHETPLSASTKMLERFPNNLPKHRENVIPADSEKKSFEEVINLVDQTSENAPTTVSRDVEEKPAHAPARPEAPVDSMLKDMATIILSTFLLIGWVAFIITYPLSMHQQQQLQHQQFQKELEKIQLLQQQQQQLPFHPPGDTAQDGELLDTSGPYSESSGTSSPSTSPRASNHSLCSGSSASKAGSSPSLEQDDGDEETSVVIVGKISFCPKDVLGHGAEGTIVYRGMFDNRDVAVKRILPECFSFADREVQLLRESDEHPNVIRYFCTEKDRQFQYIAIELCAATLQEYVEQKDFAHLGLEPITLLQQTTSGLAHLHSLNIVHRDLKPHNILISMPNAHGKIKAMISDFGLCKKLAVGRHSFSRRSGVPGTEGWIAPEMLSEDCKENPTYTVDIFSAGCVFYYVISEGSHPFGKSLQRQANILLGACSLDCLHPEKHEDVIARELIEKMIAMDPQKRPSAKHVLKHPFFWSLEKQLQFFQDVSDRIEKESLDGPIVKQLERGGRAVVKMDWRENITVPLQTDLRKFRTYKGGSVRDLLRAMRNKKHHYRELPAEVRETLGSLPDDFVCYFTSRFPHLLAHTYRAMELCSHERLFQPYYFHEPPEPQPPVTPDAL
experiment_summary: KINOMEscan competition binding
condition_summary: compound 10.0 µM
value_type: kinase still bound, per cent of control (%)
Unit % implied. Number only.

Cn1cc(C2=C(c3ccc(Cl)cc3Cl)C(=O)NC2=O)c2ccccc21 yielded kinase still bound, per cent of control of 100

Cc1cnc(-c2cnc(NCCNc3ccc(C#N)cn3)nc2-c2ccc(Cl)cc2Cl)[nH]1 yielded kinase still bound, per cent of control of 100

O=C1Nc2cc(Br)ccc2/C1=C1/Nc2ccccc2/C1=N\O yielded kinase still bound, per cent of control of 51

COc1ccc(CNC(=O)Nc2ncc([N+](=O)[O-])s2)cc1 yielded kinase still bound, per cent of control of 100
